Reference source for all entries: patent US20260152487A1

Recorded Emax, one value per entry.
target.system: recombinant human PKM2 (Homo sapiens)
Construct: His (N); purchased R&D Systems
protocol.notes: Human PKM2 activation assay (Kinase-Glo Plus luminescent detection of generated ATP)
Format: biochemical
condition.label: percentage activation normalised to DMSO vehicle (LOW) and 5 μM TEPP-46 (HIGH); read-out: hPKM2 Emax
Report only the number, with the unit % understood.

| compound | experimental.result |
| --- | --- |
| COc1cncc(Cn2ncc3cc(S(=O)(=O)c4ccccc4)ccc3c2=O)c1 [Example 31] | 74.9 |

Incoming: Look at this compound and give its reported Emax. O=c1c2ccc(S(=O)(=O)c3cccnc3)cc2cnn1Cc1cc[nH]n1 [Example 233]
Outgoing: 126

Incoming: Same question, Cc1cc(Cn2ncc3cc(S(=O)(=O)c4cnn(C(F)F)c4)ncc3c2=O)n[nH]1 [Example 343] this time
Outgoing: 98.2

Incoming: Quick one: Cn1ccc(Cn2ncc3c(F)c(S(=O)(=O)c4ccccc4)ccc3c2=O)n1 [Example 243]
Outgoing: 109

###

target.system: recombinant human PKM2 (Homo sapiens)
Construct: His (N); purchased R&D Systems
protocol.notes: Human PKM2 activation assay (Kinase-Glo Plus luminescent detection of generated ATP)
Type: biochemical
condition.label: percentage activation normalised to DMSO vehicle (LOW) and 5 μM TEPP-46 (HIGH); read-out: hPKM2 Emax
Label scheme for Emax: lower than 90% is false (0), 90% and above is true (1).

These recorded examples may help you get a feel for the data.
| compound | category |
| --- | --- |
| Cc1[nH]nc(Cn2ncc3cc(S(=O)(=O)c4cnn(C)c4)ccc3c2=O)c1C [Example 348] | true (1) |
| O=c1c2ccc(S(=O)(=O)c3cnccn3)cc2cnn1Cc1cc[nH]n1 [Example 260] | true (1) |
| COc1ccc(Cn2ncc3cc(S(=O)(=O)Nc4ccccc4)ccc3c2=O)cn1 [Example 122] | false (0) |
| COc1ccc(Cn2ncc3cc(S(=O)(=O)c4ccc5c(c4)OCCO5)ccc3c2=O)cn1 [Example 182] | false (0) |
| Cn1ccc2cc(S(=O)(=O)c3ccc4c(=O)n(Cc5cc[nH]n5)ncc4c3)ccc21 [Example 231] | true (1) |

Incoming: Exam item: decide whether the reported Emax for Nc1cccc(Cn2ncc3cc(S(=O)(=O)c4cccnc4)ccc3c2=O)c1 [Example 121] is at least 90%.
Outgoing: true (1)

Incoming: COc1ccc(Cn2ncc3cc(S(=O)(=O)c4cccc(Cl)c4)ccc3c2=O)cn1 [Example 154] ?
Outgoing: true (1)

Incoming: Again, but for COc1ccc(S(=O)(=O)c2ccc3c(=O)n(Cc4cccn(CCO)c4=O)ncc3c2)cc1 [Example 5]
Outgoing: true (1)

Incoming: Moving on to O=c1c2ccc(S(=O)(=O)c3ccccc3)cc2cnn1Cc1cccc2nccn12 [Example 34]
Outgoing: false (0)

Incoming: // repeat for O=c1c2ccc(S(=O)(=O)c3ccncc3)cc2cnn1Cc1cc[nH]n1 [Example 254] and report
Outgoing: true (1)

###

target.system: recombinant human PKM2 (Homo sapiens, UniProt P14618)
Construct: His (N); purchased R&D Systems
Sequence (P14618 2-531 limits assumed): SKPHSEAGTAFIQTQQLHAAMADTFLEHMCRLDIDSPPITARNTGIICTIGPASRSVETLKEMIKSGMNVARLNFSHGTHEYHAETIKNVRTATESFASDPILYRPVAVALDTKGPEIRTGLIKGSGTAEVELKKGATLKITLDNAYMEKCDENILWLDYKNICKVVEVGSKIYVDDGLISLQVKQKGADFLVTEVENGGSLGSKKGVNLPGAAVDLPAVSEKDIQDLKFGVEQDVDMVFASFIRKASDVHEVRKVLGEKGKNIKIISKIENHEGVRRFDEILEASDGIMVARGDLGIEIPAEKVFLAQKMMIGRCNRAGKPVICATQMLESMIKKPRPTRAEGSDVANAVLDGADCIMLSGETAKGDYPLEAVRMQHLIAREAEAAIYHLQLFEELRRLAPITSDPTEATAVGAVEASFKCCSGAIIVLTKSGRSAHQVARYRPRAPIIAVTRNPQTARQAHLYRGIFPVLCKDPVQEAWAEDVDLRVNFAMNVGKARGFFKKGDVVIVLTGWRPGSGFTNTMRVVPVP
protocol.notes: Human PKM2 activation assay (Kinase-Glo Plus luminescent detection of generated ATP)
Type: biochemical
condition.label: recombinant human PKM2 activation; 4-parameter logistic fit; read-out: hPKM2 EC50
Below, each entry is listed alongside its reported pEC50.
Keep in mind that pEC50 stands for -log10 of concentration in molar terms.

Example entries begin here.
| smiles.text | pEC50 |
| --- | --- |
| Cc1cc(Cn2ncc3cc(S(=O)(=O)c4cnn(C)c4)ncc3c2=O)n[nH]1 | 6.78 |
| O=c1c2cc(NCCO)c(S(=O)(=O)c3ccccc3)cc2cnn1Cc1cc[nH]n1 | 6.76 |
| O=c1c2ccc(S(=O)(=O)c3ccccc3)cc2cnn1Cc1cc2ccccn2n1 | 6.75 |
| O=c1c2ccc(S(=O)(=O)c3cnc4occc4c3)cc2cnn1Cc1cc[nH]n1 | 7.30 |

# input for lookup
Incoming: Which pEC50 reading was recorded for the molecule Cc1cc(Cn2ncc3cc(S(=O)(=O)c4cn[nH]c4)ccc3c2=O)nn1C ?
Outgoing: 6.82

###

target.system: recombinant human PKM2 (Homo sapiens, UniProt P14618)
Construct: His (N); purchased R&D Systems
protocol.notes: Human PKM2 activation assay (Kinase-Glo Plus luminescent detection of generated ATP)
Format: biochemical
condition.label: recombinant human PKM2 activation; 4-parameter logistic fit; read-out: hPKM2 EC50
observation.type: log10(EC50) (log10 of the value in nM)
In our notation, the value equals log10 of EC50 in nM.

The following compounds have reported results that may help.
| compound | target.system | experimental.result |
| --- | --- | --- |
| COc1cncc(Cn2ncc3cc(S(=O)(=O)c4ccccc4)ccc3c2=O)c1 [Example 31] | recombinant human PKM2 (Homo sapiens, UniProt P14618) | 2.91 |
| Cc1nc(S(=O)(=O)c2ccc3c(=O)n(Cc4cc5n(n4)CCO5)ncc3c2)cs1 [Example 357] | recombinant human PKM2 (Homo sapiens, UniProt P14618) | 1.89 |
| COc1ccc(Cn2ncc3cc(S(=O)(=O)c4cnn(C)c4C)ccc3c2=O)cn1 [Example 190] | recombinant human PKM2 (Homo sapiens, UniProt P14618) | 2.35 |
| Cn1cc(Cl)c(Cn2ncc3cc(S(=O)(=O)c4ccccc4)ccc3c2=O)n1 [Example 76] | recombinant human PKM2 (Homo sapiens, UniProt P14618) | 2.02 |
| Nc1cccc(Cn2ncc3cc(S(=O)(=O)c4ccc5c(c4)OCO5)ccc3c2=O)c1 [Example 152] | recombinant human PKM2 (Homo sapiens, UniProt P14618) | 1.28 |

Incoming: Dear colleague, I am looking for the recorded log10(EC50) of the following compound: COc1ccc(Cn2ncc3cc(S(=O)(=O)Nc4ccccc4)ccc3c2=O)cn1 [Example 122]
Outgoing: 2.77

###

target.system: recombinant human PKM2 (Homo sapiens, UniProt P14618)
Construct: His (N); purchased R&D Systems
protocol.notes: Human PKM2 activation assay (Kinase-Glo Plus luminescent detection of generated ATP)
Format: biochemical
condition.label: recombinant human PKM2 activation; 4-parameter logistic fit; read-out: hPKM2 EC50
// NB: equality with 0.08 µM counts as Condition not met; only EC50 strictly below is Condition met

Example entries begin here.
| compound | category |
| --- | --- |
| Cc1ccc(S(=O)(=O)c2ccc3c(=O)n(Cc4cccc(N)c4)ncc3c2)s1 | Condition met |
| O=c1c2ccc(S(=O)(=O)c3ccc4ccoc4c3)cc2cnn1Cc1cc[nH]n1 | Condition not met |
| O=c1c2ccc(S(=O)(=O)c3ccccc3)cc2cnn1C(CO)c1ccccc1 (stereo not drawn) | Condition not met |

Incoming: Regarding COc1ccc(S(=O)(=O)c2ccc3c(=O)n(Cc4c(O)ccnc4O)ncc3c2)cc1 , kindly confirm whether its EC50 is beneath 0.08 µM.
Outgoing: Condition not met

Incoming: Another compound to check: COc1ccc(S(=O)(=O)c2ccc3c(=O)n(Cc4ccccc4)ncc3c2)cc1
Outgoing: Condition met

###

target.system: recombinant human PKLR (Homo sapiens)
Construct: His (N); purchased R&D Systems
Sequence (P30613 whole entry): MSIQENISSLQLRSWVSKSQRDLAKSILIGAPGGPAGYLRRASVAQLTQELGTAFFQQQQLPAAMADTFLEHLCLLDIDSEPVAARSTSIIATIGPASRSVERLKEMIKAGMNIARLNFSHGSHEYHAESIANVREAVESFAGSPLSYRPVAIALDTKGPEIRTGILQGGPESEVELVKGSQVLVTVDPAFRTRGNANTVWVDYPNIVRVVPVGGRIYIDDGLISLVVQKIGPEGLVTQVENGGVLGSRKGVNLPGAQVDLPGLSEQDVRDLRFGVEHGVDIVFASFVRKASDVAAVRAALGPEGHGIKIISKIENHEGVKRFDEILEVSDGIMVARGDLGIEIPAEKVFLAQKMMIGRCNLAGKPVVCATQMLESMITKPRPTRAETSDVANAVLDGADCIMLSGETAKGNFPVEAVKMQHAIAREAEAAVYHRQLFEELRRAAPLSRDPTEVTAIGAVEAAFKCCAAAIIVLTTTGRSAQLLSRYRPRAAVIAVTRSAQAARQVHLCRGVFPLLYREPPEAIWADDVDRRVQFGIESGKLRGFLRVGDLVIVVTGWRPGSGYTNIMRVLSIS
protocol.notes: Human PKLR activation assay (Kinase-Glo Plus luminescent detection of generated ATP)
Format: biochemical
condition.label: activation of recombinant human PKLR; 4-parameter logistic fit; read-out: hPKLR EC50
observation.type: EC50 (nM)
Quick reminder: number only, in nM, skip the unit.

Would you please look over these solved cases?
| molecule | units.text | EC50 |
| --- | --- | --- |
| Cc1cccc(Cn2ncc3cc(S(=O)(=O)c4cnn(C5CC5)c4)ccc3c2=O)n1 [Example 259] | nM | 13.1 |
| Cc1cc(F)c(Cn2ncc3cc(S(=O)(=O)c4cn[nH]c4)ccc3c2=O)nc1C [Example 321] | nM | 6.57 |
| O=c1c2ccc(S(=O)(=O)c3cnn(C4CC4)c3)cc2cnn1Cc1ccn(C2CC2)n1 [Example 196] | nM | 17 |
| Cc1cc(Cn2ncc3cc(S(=O)(=O)c4ccccc4)ccc3c2=O)n[nH]1 [Example 96] | nM | 9.3 |
| C[C@H]1Cc2cc(S(=O)(=O)c3ccc4c(=O)n(Cc5ccn(C)n5)ncc4c3)ccc2O1 [Example 219] | nM | 10.2 |
| Cc1cccc(Cn2ncc3cc(S(=O)(=O)c4cn[nH]c4)ccc3c2=O)n1 [Example 238] | nM | 14.4 |

Incoming: Notebook entry, recombinant human PKLR (Homo sapiens) assay: EC50 of Cc1cc(Cn2ncc3cc(S(=O)(=O)c4ccccc4)ccc3c2=O)nn1C [Example 90] = ?
Outgoing: 10.1
